tested on: Fer kinase domain; assay: pTyr-Var library bacterial peptide display kinase screen (enrichment scores); format: biochemical, mouse; settings: sheet "Fer"; value of the variant peptide against its reference peptide in the pTyr-Var library screen with Fer;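 further: log2 fold change in enrichment of variant over reference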
Quick reference for Screen among some sequences
Reply with just the number.

The examples below pair each entry with its known result.
INPIIYAFVVE [CCR5_Y297_G301V] : -1.367
KAEQLYIGVTV [EFHC2_Y509_E507Q] : 0.3011
QTPVLYTMLDH [MPZ_Y220_A221T] : 0.203
RQSTLYSFFPT [MSH6_Y8_K13T] : 1.758
NVVQEYERVII [NPHS2_Y131_K126N] : 0.1682
KFADVYVGICL [B3GALNT1_Y269_E266A] : -1.445

With those in mind, consider the next sequence.
What the record says about ENGPFYASFPP [GDAP2_Y488_T489A_YF] : Screen is 0.7376

----------
tested on: Fer kinase domain; experiment: pTyr-Var library bacterial peptide display kinase screen (enrichment scores); format: biochemical, mouse; details: sheet "Fer"; value of the variant peptide against its reference peptide in the pTyr-Var library screen with Fer;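 further: log2 fold change in enrichment of variant over reference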
Entry flag: Condition met if Screen reaches 0.7; Condition not met if it does not.

ADAGMYGVLPW [PLP1_Y207_R205G] : Condition met
EELLRYAIVTP [POC5_Y37_H36R] : Condition not met
GDEVEYMSVSF [GCLC_Y53_L55S] : Condition not met
QPSALYEDRFL [ASS1_Y83_S79P_YF] : Condition not met
LTTEAYEWEPC [ELMOD3_Y61_R66C] : Condition met

--- query ---
// inclusive: Screen at least 0.7? input: GQLIVYAPPEW [CNTN6_Y315_F314V]
Condition not met

----------
Quick reference for Screen among some sequences
molecular target: c-Src kinase domain (Homo sapiens, UniProt P12931); assay: pTyr-Var library bacterial peptide display kinase screen (enrichment scores); format: biochemical; settings: sheet "Src"; variant peptide versus its reference peptide in the pTyr-Var library screen;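 further: log2 fold change in enrichment of variant over reference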
Reply with just the number.

The examples below pair each entry with its known result.
FQKDVYNIPPS [NEDD9_Y177_D178N_YF] : -0.2537
PLSGEYFTLQI [TP53_Y327_D324S] : -0.1322

What the record says about SEHLIYLEFKS [RASGRP1_Y215_T214I] : Screen is 0.01051

What the record says about NTGGFYDLFGG [PTPN11_Y63_D61G_YF] : Screen is -0.08944

What the record says about DWWQEYVLNES [TGM1_Y267_R264W] : Screen is 1.594

What the record says about AVARMYGVLPW [PLP1_Y207_D203V] : Screen is -1.597

What the record says about VVQGIYGFHHH [UFSP2_Y285_Y290H_YF] : Screen is 0.2882

----------
target: c-Abl kinase domain (Mus musculus, UniProt P00520); assay: pTyr-Var library bacterial peptide display kinase screen (enrichment scores); type: biochemical; settings: sheet "Abl"; effect of variant peptide relative to its reference peptide in pTyr-Var library screen (enrichment);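 further: log2 fold change in enrichment of variant over reference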
Recorded Endpoint: Screen

The examples below pair each entry with its known result.
PLSGEYFTLQI [TP53_Y327_D324S] : -0.7361
SFSGEYGSGGG [ZG16_Y30_G32S_YF] : -2.078
DTQNSYWCATS [TSC1_Y304_G305W] : 1.58

Screen of GCKNRYDEDKP [THAP1_Y14_K16E] , assay on c-Abl kinase domain (Mus musculus, UniProt P00520), is 1.101

Screen of KACNPYKPPGP [TTN_Y25826_T25821K] , assay on c-Abl kinase domain (Mus musculus, UniProt P00520), is -2.971

Screen of RGVVMYTSKDR [ZG16B_Y136_M133V] , assay on c-Abl kinase domain (Mus musculus, UniProt P00520), is -3.766

Screen of ELAVNYQEQAS [SLC9A9_Y591_I589V] , assay on c-Abl kinase domain (Mus musculus, UniProt P00520), is 1.481

Screen of LAVNPYGPPDL [TTN_Y22579_P22584L] , assay on c-Abl kinase domain (Mus musculus, UniProt P00520), is -1.7

Screen of GEFFRYLAEVA [YWHAG_Y133_D129E_YF] , assay on c-Abl kinase domain (Mus musculus, UniProt P00520), is 3.326

Screen of FSSLGYPLPEG [ZSWIM4_Y87_P89L_YF] , assay on c-Abl kinase domain (Mus musculus, UniProt P00520), is 1.474

Screen of KMKGEYFRFLA [YWHAG_Y130_D129E_YF] , assay on c-Abl kinase domain (Mus musculus, UniProt P00520), is -2.114

Screen of AALRLYHVSDS [VIL1_Y256_K254R] , assay on c-Abl kinase domain (Mus musculus, UniProt P00520), is 2.11

Screen of PGVNFYFQVSA [TTN_Y28166_R28168Q_YF] , assay on c-Abl kinase domain (Mus musculus, UniProt P00520), is -2.22

Screen of IVRSLYEDQED [VHL_Y185_L188Q] , assay on c-Abl kinase domain (Mus musculus, UniProt P00520), is 2.774

Screen of TKGNEYVFRVA [TTN_Y30829_E30825K] , assay on c-Abl kinase domain (Mus musculus, UniProt P00520), is -2.941

Screen of DPNQQYFIAMD [TBX15_Y159_H156N_YF] , assay on c-Abl kinase domain (Mus musculus, UniProt P00520), is -1.397

Screen of HGEAVYSRDCV [XPC_Y676_R671H] , assay on c-Abl kinase domain (Mus musculus, UniProt P00520), is 1.031

----------
tested on: EPHB2 kinase domain; experiment: pTyr-Var library bacterial peptide display kinase screen (enrichment scores); assay type: biochemical, human; details: sheet EPHB2; effect of the variant relative to its reference peptide in the pTyr-Var library screen;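 further: log2 fold change in enrichment of variant over reference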
Recorded Endpoint: Screen
Reply with just the number.

The examples below pair each entry with its known result.
PLEGEYFTLQI [TP53_Y327_D324E] : 1.812
ISSLLYELLEE [TRPC6_Y896_R895L] : 3.042
GRKTLYSFFSP [UNG_Y8_Q4R] : -1.763
VVQGIYGFHHH [UFSP2_Y285_Y290H_YF] : -2.017

What the record says about NREGVYTDFAP [TGFBI_Y537_V539D] : Screen is -1.696

----------
system: Fer kinase domain; assay: pTyr-Var library bacterial peptide display kinase screen (enrichment scores); type: biochemical, mouse; settings: sheet "Fer"; variant peptide relative to its reference peptide, pTyr-Var library screen enrichment;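 further: log2 fold change in enrichment of variant over reference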
Entry flag: Condition met if Screen reaches -0.5; Condition not met if it does not.

Here's what some known entries look like.
GRKTLYSFFSP [UNG_Y8_Q4R] : Condition not met
ISSLLYELLEE [TRPC6_Y896_R895L] : Condition met
PLEGEYFTLQI [TP53_Y327_D324E] : Condition met
VVQGIYGFHHH [UFSP2_Y285_Y290H_YF] : Condition met
KTGDFYDLFGG [PTPN11_Y63_N58K_YF] : Condition not met
NREGVYTDFAP [TGFBI_Y537_V539D] : Condition not met

// inclusive: Screen at least -0.5? input: LHQSTYQCFDV [SLC7A14_Y693_R695C_YF]
Condition met

----------
Quick reference for Screen among some sequences
tested on: Fer kinase domain; assay: pTyr-Var library bacterial peptide display kinase screen (enrichment scores); assay type: biochemical, mouse; conditions: sheet "Fer"; value of the variant peptide against its reference peptide in the pTyr-Var library screen with Fer;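 further: log2 fold change in enrichment of variant over reference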

LTVVIYVLVGR [EPHA3_Y561_I564V] : -2.144
VKANTYEKFWL [GATM_Y100_P105L_YF] : 2.288
NKFTTYLPWLP [C9orf24_Y126_R129W_YF] : 4.402
NHQFDYTFHWT [CSNK1A1_Y294_D297H_YF] : 3.7
TKDTFYQQPMF [GBA_Y451_K452Q] : 2.731

What the record says about HNVPIYEGFGL [ACTA1_Y168_A172G_YF] : Screen is -0.2533

What the record says about LLEGKYEWQEV [CDKN1B_Y74_P69L] : Screen is 1.551
